Would you mind telling me the reported self-aminoacylation of each entry?
System: biotinyl-Val-oxazolone
Assay details: self-aminoacylation, catalytic enhancement (BVO) (fold over background); higher = more active; k-Seq, kA / k0A0; sequences stand for … in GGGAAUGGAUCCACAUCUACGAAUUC…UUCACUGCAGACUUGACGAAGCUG
Variants at the floor of the assay were thinned out.
Numbers only.

Look over these answered cases.
Sequence chain: CUACAUCAAACAAUCUGUCUG [Fam1A.1 aminoacylation ribozyme variant]
Property measured: self-aminoacylation
Observed value: 0.736
--
Sequence chain: CCACACUUCACGCAAUCAGUC [Fam1B.1 aminoacylation ribozyme variant]
Property measured: self-aminoacylation
Observed value: 0.731
--
Sequence chain: AACUUCGCUAAUAGUCGCAAG [Fam3.1 aminoacylation ribozyme variant]
Property measured: self-aminoacylation
Observed value: 3.03
--
Sequence chain: AUUAACCCGGUCAUCGAGUGA [Fam2.1 aminoacylation ribozyme variant]
Property measured: self-aminoacylation
Observed value: 4.15
--
Sequence chain: CUACUUCAAACAAUCCGGCUG [Fam1A.1 aminoacylation ribozyme variant]
Property measured: self-aminoacylation
Observed value: 1.78

Could you report self-aminoacylation for every entry in the following list?
1. CUACUUAAAACAAUCGGGCUG [Fam1A.1 aminoacylation ribozyme variant]
2. AUUACCCUGAUCAUCGAGUGU [Fam2.1 aminoacylation ribozyme variant]
3. AAGUUUGCUAAUAGUGGUAAG [Fam3.1 aminoacylation ribozyme variant]
4. AUUACCCAGGUCGUCGAGUGA [Fam2.1 aminoacylation ribozyme variant]
5. AUUACCCUGGGCAUCAAGUGA [Fam2.1 aminoacylation ribozyme variant]
6. GUCCUUCAAACAAUCGGUCUG [Fam1A.1 aminoacylation ribozyme variant]
7. CUACUUCAAACAAAGGGUCUG [Fam1A.1 aminoacylation ribozyme variant]

**Result**
1: 1.02; 2: 2.24; 3: 0.801; 4: 0.951; 5: 1.37; 6: 1.52; 7: 0.724
